Test system: T-Rex 293 cell line SC3 cells lacking increased expression of androgen receptor protein
experimentSummary: Cellular growth inhibition assay, T-Rex 293 SC3 cells without doxycycline (CellTiter-Glo, 72 hours)
Format: cell-based
testParameters: 72 h, T-Rex 293 cell line SC3 cells not exposed to doxycycline (lacking increased androgen receptor expression)
metricName: GI50

molecule	metricName	result
Cc1sc2c(c1C)C(c1ccc(N[C@H]3CC[C@H](Nc4ncc(C(=O)N[C@H]5CC[C@H](Oc6ccc(C#N)c(Cl)c6)CC5)cn4)CC3)cc1)=NC(Cc1ncco1)c1nnc(C)n1-2 (stereo partly shown)	GI50	< 500 nM
Cc1sc2c(c1C)C(c1ccc(C#CC3CC4(C3)CN(c3ccc(C(=O)N[C@H]5CC[C@H](Oc6ccc(C#N)c(Cl)c6)CC5)nn3)C4)cc1)=NC(C(F)(F)F)c1nnc(C)n1-2 (stereo partly shown)	GI50	> 3000 nM
Cc1sc2c(c1C)C(c1ccc(O[C@H]3C[C@@]4(CCCN(c5ccc(C(=O)N[C@H]6CC[C@H](Oc7ccc(C#N)c(Cl)c7)CC6)nn5)C4)C3)cn1)=N[C@@H](Cc1ncco1)c1nnc(C)n1-2	GI50	< 500 nM
Cc1sc2c(c1C)C(c1ccc(C(=O)N3CCN(Cc4ccc(C(=O)N[C@H]5CC[C@H](Oc6ccc(C#N)c(Cl)c6)CC5)nn4)CC3)cc1)=N[C@H](Cc1ncco1)c1nnc(C)n1-2	GI50	> 3000 nM
CCNC(=O)C[C@@H]1N=C(c2ccc(N3CCN(C4CN(c5ccc(C(=O)N[C@H]6CC[C@H](Oc7ccc(C#N)c(Cl)c7)CC6)nn5)C4)CC3)cc2)c2c(sc(C)c2C)-n2c(C)nnc21	GI50	500 to 1500 nM
Cc1sc2c(c1C)C(c1ccc(O[C@H]3C[C@]4(CCCN(c5ccc(C(=O)N[C@H]6CC[C@H](Oc7ccc(C#N)c(Cl)c7)CC6)nn5)C4)C3)cc1)=N[C@@H](C)c1nnc(C)n1-2	GI50	> 3000 nM
Cc1sc2c(c1C)C(c1ccc(O[C@H]3C[C@]4(CCCN(c5ccc(C(=O)N[C@H]6CC[C@H](Oc7ccc(C#N)c(Cl)c7)CC6)nn5)C4)C3)cc1)=N[C@@H](Cc1ncco1)c1nnc(C)n1-2	GI50	< 500 nM
Cc1sc2c(c1C)C(c1ccc(N3CCC[C@H](C(=O)NCc4ccc(C(=O)N[C@H]5CC[C@H](Oc6ccc(C#N)c(Cl)c6)CC5)nn4)C3)cc1)=N[C@H](Cc1ncco1)c1nnc(C)n1-2	GI50	> 3000 nM
Cc1sc2c(c1C)C(c1ccc(CCN3[C@H](C)CN(c4ccc(C(=O)N[C@H]5CC[C@H](Oc6ccc(C#N)c(Cl)c6)CC5)nn4)C[C@@H]3C)cc1)=N[C@@H](Cc1ncco1)c1nnc(C)n1-2	GI50	< 500 nM
Cc1sc2c(c1C)C(c1ccc(OCC3CC4(CCCN(c5ccc(C(=O)N[C@H]6CC[C@H](Oc7ccc(C#N)c(Cl)c7)CC6)nn5)C4)C3)cc1)=NCc1nnc(C)n1-2 (stereo partly shown)	GI50	> 3000 nM

---

Tested on: T-Rex 293 cell line SC3 cells lacking increased expression of androgen receptor protein
experimentSummary: Cellular growth inhibition assay, T-Rex 293 SC3 cells without doxycycline (CellTiter-Glo, 72 hours)
Assay type: cell-based
testParameters: 72 h, T-Rex 293 cell line SC3 cells not exposed to doxycycline (lacking increased androgen receptor expression)

compound	GI50
Cc1sc2c(c1C)C(c1ccc(C(=O)N3CCC(N(C)c4ccc(C(=O)N[C@H]5CC[C@H](Oc6ccc(C#N)c(Cl)c6)CC5)nn4)CC3)cc1)=N[C@H](Cc1ncco1)c1nnc(C)n1-2 [I-307]	0.5 to 1.5 µM
COCC[C@@H]1N=C(c2ccc(N3CCC4(CCCN(c5ccc(C(=O)N[C@H]6CC[C@H](Oc7ccc(C#N)c(Cl)c7)CC6)nn5)C4)CC3)cc2)c2c(sc(C)c2C)-n2c(C)nnc21 [I-569]	> 3 µM
Cc1sc2c(c1C)C(c1ccc(NCC3CCN(c4ncc(C(=O)N[C@H]5CC[C@H](Oc6ccc(C#N)c(Cl)c6)CC5)cn4)CC3)cc1)=NC(Cc1ncco1)c1nnc(C)n1-2 (stereo partly shown) [I-786]	< 0.5 µM
Cc1sc2c(c1C)C(c1ccc(C/C=C/C3CN(c4ccc(C(=O)N[C@H]5CC[C@H](Oc6ccc(C#N)c(Cl)c6)CC5)nn4)C3)cc1)=N[C@@H](Cc1ncco1)c1nnc(C)n1-2 [I-678]	> 3 µM
Cc1sc2c(c1C)C(c1ccc(N3CCN(CC4CCN(c5ccc(C(=O)N[C@H]6CC[C@H](Oc7ccc(C#N)c(Cl)c7)CC6)nn5)CC4)CC3)cc1)=NC1(CC1)c1nnc(C)n1-2 [I-491]	< 0.5 µM
Cc1sc2c(c1C)C(c1ccc(N3CCC4(CCN(c5ccc(C(=O)N[C@H]6CC[C@H](Oc7ccc(C#N)c(Cl)c7)CC6)nn5)C4)C3)cc1)=N[C@@H](C)c1nnc(C)n1-2 (stereo partly shown) [I-512]	< 0.5 µM
Cc1sc2c(c1C)C(c1ccc(N3CCC(C)(Nc4ncc(C(=O)N[C@H]5CC[C@H](Oc6ccc(C#N)c(Cl)c6)CC5)cn4)CC3)cc1)=NC(Cc1ncco1)c1nnc(C)n1-2 (stereo partly shown) [I-778]	< 0.5 µM
Cc1sc2c(c1C)C(c1ccc(C#CC3CC4(C3)CN(c3ccc(C(=O)N[C@H]5CC[C@H](Oc6ccc(C#N)c(Cl)c6)CC5)nn3)C4)cc1)=N[C@H](Cc1ncco1)c1nnc(C)n1-2 [I-227]	> 3 µM
Cc1sc2c(c1C)C(c1ccc(OC3CC4(CCN(c5ccc(C(=O)N[C@H]6CC[C@H](Oc7ccc(C#N)c(Cl)c7)CC6)nn5)CC4)C3)cc1)=N[C@](C)(C(C)c1ncco1)c1nnc(C)n1-2 (stereo partly shown) [I-237]	> 3 µM
Cc1sc2c(c1C)C(c1ccccc1OC1CC3(CCCN(c4ccc(C(=O)N[C@H]5CC[C@H](Oc6ccc(C#N)c(Cl)c6)CC5)nn4)C3)C1)=N[C@@H](C)c1nnc(C)n1-2 (stereo partly shown) [I-716]	> 3 µM

---

Listed below: GI50 values for each entry.
Test system: T-Rex 293 cell line SC3 cells lacking increased expression of androgen receptor protein
experimentSummary: Cellular growth inhibition assay, T-Rex 293 SC3 cells without doxycycline (CellTiter-Glo, 72 hours)
Assay type: cell-based
testParameters: 72 h, T-Rex 293 cell line SC3 cells not exposed to doxycycline (lacking increased androgen receptor expression)

compound	tgt	GI50
Cc1sc2c(c1C)C(c1ccc(C3CCC4(CC3)CCN(c3ccc(C(=O)N[C@H]5CC[C@H](Oc6ccc(C#N)c(Cl)c6)CC5)nn3)C4)cc1)=N[C@@H](C)c1nnc(C)n1-2 (stereo partly drawn)	T-Rex 293 cell line SC3 cells lacking increased expression of androgen receptor protein	< 0.5 µM
Cc1sc2c(c1C)C(c1ccc(CC3CCC4(C3)CN(c3ccc(C(=O)N[C@H]5CC[C@H](Oc6ccc(C#N)c(Cl)c6)CC5)nn3)CCO4)cc1)=NC1(CC1)c1nnc(C)n1-2 (stereo partly drawn)	T-Rex 293 cell line SC3 cells lacking increased expression of androgen receptor protein	> 3 µM
Cc1sc2c(c1C)C(c1ccc(N3CCC(CC4CCN(c5ccc(C(=O)N[C@H]6CC[C@H](Oc7ccc(C#N)c(Cl)c7)CC6)nn5)CC4)CC3)cc1)=N[C@@H](C)c1nnc(C)n1-2	T-Rex 293 cell line SC3 cells lacking increased expression of androgen receptor protein	> 3 µM

---

Test system: T-Rex 293 cell line SC3 cells lacking increased expression of androgen receptor protein
experimentSummary: Cellular growth inhibition assay, T-Rex 293 SC3 cells without doxycycline (CellTiter-Glo, 72 hours)
Format: cell-based
testParameters: 72 h, T-Rex 293 cell line SC3 cells not exposed to doxycycline (lacking increased androgen receptor expression)

compound	GI50
Cc1sc2c(c1C)C(c1ccc(O[C@@H]3CC[C@]4(CCCN(c5ccc(C(=O)N[C@H]6CC[C@H](Oc7ccc(C#N)c(Cl)c7)CC6)nn5)C4)C3)cn1)=N[C@@H](Cc1ncco1)c1nnc(C)n1-2	< 500 nM
Cc1sc2c(c1C)C(c1ccc(N3CCC4(CCCN(c5ccc(C(=O)N[C@H]6CC[C@H](Oc7ccc(C#N)c(Cl)c7)CC6)nn5)C4)CC3)cc1)=NC1(CC1)c1nnc(C)n1-2	> 3000 nM
CCNC(=O)C[C@@H]1N=C(c2ccc(N(C)CCC3CCN(c4ccc(C(=O)N[C@H]5CC[C@H](Oc6ccc(C#N)c(Cl)c6)CC5)nn4)CC3)cc2)c2c(sc(C)c2C)-n2c(C)nnc21	500 to 1500 nM
Cc1sc2c(c1C)C(c1ccc(CCC[C@@H]3CCCN(c4ccc(C(=O)N[C@H]5CC[C@H](Oc6ccc(C#N)c(Cl)c6)CC5)nn4)C3)cc1)=N[C@@H](Cc1ncco1)c1nnc(C)n1-2	< 500 nM
Cc1sc2c(c1C)C(c1ccc(N3C[C@@H]4CN(c5ccc(C(=O)N[C@H]6CC[C@H](Oc7ccc(C#N)c(Cl)c7)CC6)nn5)C[C@@H]4C3)cc1)=N[C@@H](C)c1nnc(C)n1-2	< 500 nM
Cc1sc2c(c1C)C(c1ccc(CC(=O)N3CCC(c4ccc(C(=O)N[C@H]5CC[C@H](Oc6ccc(C#N)c(Cl)c6)CC5)nn4)CC3)cc1)=N[C@H](Cc1ncco1)c1nnc(C)n1-2	> 3000 nM
Cc1sc2c(c1C)C(c1ccc(O[C@@H]3CC[C@@]4(CCCN(c5ccc(C(=O)N[C@H]6CC[C@H](Oc7ccc(C#N)c(Cl)c7)CC6)nn5)C4)C3)cn1)=N[C@@H](Cc1ncco1)c1nnc(C)n1-2	< 500 nM
Cc1sc2c(c1C)C(c1ccc(N3CCC4(CC3)CC(Nc3ncc(C(=O)N[C@H]5CC[C@H](Oc6ccc(C#N)c(Cl)c6)CC5)cn3)C4)cc1)=NC(Cc1ncco1)c1nnc(C)n1-2 (stereo partly shown)	< 500 nM
Cc1sc2c(c1C)C(c1ccc(OC3CC4(CCN(c5ccc(C(=O)N[C@H]6CC[C@H](Oc7ccc(C#N)c(Cl)c7)CC6)nn5)CC4)C3)cc1)=N[C@H](Cc1ncco1)c1nnc(C)n1-2	> 3000 nM
CCNC(=O)C[C@@H]1N=C(c2ccc(N3CCC(CN4CC(N(C)c5ccc(C(=O)N[C@H]6CC[C@H](Oc7ccc(C#N)c(Cl)c7)CC6)nn5)C4)CC3)cc2)c2c(sc(C)c2C)-n2c(C)nnc21	> 3000 nM
CCNC(=O)C[C@@H]1N=C(c2ccc(N3CCC(N(C)C4CN(c5ccc(C(=O)N[C@H]6CC[C@H](Oc7ccc(C#N)c(Cl)c7)CC6)nn5)C4)CC3)cc2)c2c(sc(C)c2C)-n2c(C)nnc21	500 to 1500 nM
Cc1sc2c(c1C)C(c1ccc(OC[C@H]3CC[C@@]4(CCCN(c5ccc(C(=O)N[C@H]6CC[C@H](Oc7ccc(C#N)c(Cl)c7)CC6)nn5)C4)C3)cc1)=N[C@@H](Cc1ncco1)c1nnc(C)n1-2	< 500 nM
Cc1sc2c(c1C)C(c1ccc(CN3CC(=O)N4C[C@@H](c5ccc(C(=O)N[C@H]6CC[C@H](Oc7ccc(C#N)c(Cl)c7)CC6)nn5)C[C@H]4C3=O)cc1)=N[C@@H](Cc1ncco1)c1nnc(C)n1-2	> 3000 nM
CCNC(=O)C[C@@H]1N=C(c2ccc(CCCC3CCN(c4ccc(C(=O)N[C@H]5CC[C@H](Oc6ccc(C#N)c(Cl)c6)CC5)nn4)CC3)cc2)c2c(sc(C)c2C)-n2c(C)nnc21	500 to 1500 nM
Cc1sc2c(c1C)C(c1cccc(OC3CC4(CCN(c5ccc(C(=O)N[C@H]6CC[C@H](Oc7ccc(C#N)c(Cl)c7)CC6)nn5)CC4)C3)c1)=N[C@@H](C)c1nnc(C)n1-2	500 to 1500 nM
Cc1sc2c(c1C)C(c1ccc(N3CCC[C@H](C(=O)N4CCC[C@H](c5ccc(C(=O)N[C@H]6CC[C@H](Oc7ccc(C#N)c(Cl)c7)CC6)nn5)C4)C3)cc1)=N[C@@H](Cc1ncco1)c1nnc(C)n1-2	< 500 nM
Cc1sc2c(c1C)C(c1ccc(CO[C@H]3C[C@@]4(CCCN(c5ccc(C(=O)N[C@H]6CC[C@H](Oc7ccc(C#N)c(Cl)c7)CC6)nn5)C4)C3)cc1)=N[C@@H](C)c1nnc(C)n1-2	> 3000 nM
Cc1sc2c(c1C)C(c1ccc(OCC[C@@H]3CCCN(c4ccc(C(=O)N[C@H]5CC[C@H](Oc6ccc(C#N)c(Cl)c6)CC5)nn4)C3)cc1)=N[C@@H](Cc1ncco1)c1nnc(C)n1-2	< 500 nM
Cc1sc2c(c1C)C(c1ccc(CCCN3CCCN(c4ccc(C(=O)N[C@H]5CC[C@H](Oc6ccc(C#N)c(Cl)c6)CC5)nn4)CC3)cc1)=N[C@@H](Cc1ncco1)c1nnc(C)n1-2	< 500 nM
